assayedSystem: T1, human factor Xa (human, UniProt P00742 41-179; P00742 235-488)
T1 chain 1: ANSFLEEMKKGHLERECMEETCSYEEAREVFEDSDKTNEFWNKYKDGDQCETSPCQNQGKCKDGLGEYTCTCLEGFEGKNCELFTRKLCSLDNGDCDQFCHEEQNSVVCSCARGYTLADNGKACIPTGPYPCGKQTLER
T1 chain 2: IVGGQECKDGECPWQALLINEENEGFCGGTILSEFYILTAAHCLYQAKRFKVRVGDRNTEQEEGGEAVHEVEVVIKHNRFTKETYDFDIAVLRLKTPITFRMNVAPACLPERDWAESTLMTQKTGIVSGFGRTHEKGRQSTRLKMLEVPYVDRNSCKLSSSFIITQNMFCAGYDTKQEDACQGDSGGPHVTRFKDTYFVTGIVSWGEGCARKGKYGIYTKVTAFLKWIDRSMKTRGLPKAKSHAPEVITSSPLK
methodSummary: enzyme inhibition
Label 1.0 when Ki is strictly below 0.3 µM; at or above that, label 0.0.

Q. Is it true that Ki reported for TW6180 (protein) EVVREVCSEQAETGPCRAMFSRWYFDVTEGKCAPFFYGGCGGNRNNFDTEEYCMAVCGSAI is less than 0.3 µM?
A. 1.0

Q. Is it true that Ki reported for TW6163 (protein) EVVREVCSEQAETGPCRAMHSRWYFDVTEGKCAPFFYGGCGGNRNNFDTEEYCMAVCGSAI is less than 0.3 µM?
A. 0.0

Q. Is it true that Ki reported for BG001 (protein) EVVREVCSEQAETGPCRAMLSRWYFDVTEGKCAPFFYGGCGGNRNNFDTEEYCMAVCGSAI is less than 0.3 µM?
A. 1.0

Q. Is it true that Ki reported for DD105 (protein) EVVREVCSEQAETGPCRAMIWRWYFDVTEGKCAPFFYGGCGGNRNNFDTEEYCMAVCGSAI is less than 0.3 µM?
A. 0.0

Q. Is it true that Ki reported for DD103 (protein) EVVREVCSEQAETGPCRAMIFRWYFDVTEGKCAPFFYGGCGGNRNNFDTEEYCMAVCGSAI is less than 0.3 µM?
A. 1.0
